Here, each record is paired with measured GI50 data.
System: RXF 393
Test: NCI tumour cell line growth inhibition, 48 h
Activity calls are given as the source filed them. Cut-off read from the data, not from the text of the source: active = GI50 up to about 1.1 µM and inactive = higher.

COMPOUND	ASSAYED_TARGET	MEASUREMENT_NAME	RESULT
CC(=O)c1sc2n(C)c(=O)c3ccccc3[n+]2c1C	RXF 393	GI50	> 100 µM (inactive)
Nc1ccc2nc3ccc(N)cc3[n+](-c3ccccc3)c2c1	RXF 393	GI50	> 100 µM (inactive)
C/C=C/c1cc(=O)c([C@@H]2OC(=O)c3cc(OC)cc(OC)c32)co1	RXF 393	GI50	42.2 µM (inactive)
CN(C)C(=O)O/N=C1/C(=C2/C(=O)Nc3ccccc32)Nc2ccccc21	RXF 393	GI50	1.57 µM (inactive)
CCOC(=O)c1c(N2CCOCC2)[nH]c(=O)c(C(c2c(Cl)cccc2Cl)c2c(O)c(C(=O)OCC)c(N3CCOCC3)[nH]c2=O)c1O	RXF 393	GI50	2.19 µM (inactive)
COc1ccc(CCNCc2cccc(OC)c2OC)cc1OC	RXF 393	GI50	> 100 µM (inactive)

Prompt line: Which GI50 is reported with RXF 393 for this entry: Cc1ccc(Oc2ccc(C)cc2[N+](=O)[O-])cc1 ?
Response line: 26.5 µM (inactive)

Prompt line: Which GI50 is reported with RXF 393 for this entry: COC(=O)c1c(O)ccc2c1c1c(n2Cc2cc(OC)cc(OC)c2)C(=O)c2ccccc2C1=O ?
Response line: 8.32 µM (inactive)

Prompt line: Which GI50 is reported with RXF 393 for this entry: C=C1C[C@H]2C=Nc3cc(OCCCOc4cc5c(cc4OC)C(=O)N4CC(=C)C[C@H]4C=N5)c(OC)cc3C(=O)N2C1 ?
Response line: < 0.0107 µM (active)

Prompt line: Which GI50 is reported with RXF 393 for this entry: COC(=O)C1=CC2C=CC(C1C(=O)OC)C1C(C(=O)OC)=C(C(=O)OC)C(C(=O)OC)=C(C(=O)OC)C21OC (centres undefined) ?
Response line: > 100 µM (inactive)

Prompt line: Which GI50 is reported with RXF 393 for this entry: N#CC1C=Cc2ccccc2N1C(=O)Oc1ccccc1 (centres undefined) ?
Response line: 66.4 µM (inactive)

Prompt line: Which GI50 is reported with RXF 393 for this entry: CCOC(=O)Nc1ccc(S(=O)(=O)OC)cc1.CCOC(=O)Nc1ccc(S(=O)(=O)OC)cc1.NC(=O)NCCO ?
Response line: > 50 µM (inactive)

Prompt line: Which GI50 is reported with RXF 393 for this entry: O=C(Oc1c(Br)cc(Br)cc1C(=O)Oc1ccccc1)C(=O)Oc1c(Br)cc(Br)cc1C(=O)Oc1ccccc1 ?
Response line: 12.9 µM (inactive)

Prompt line: Which GI50 is reported with RXF 393 for this entry: CC(CO)CCNc1ncnc2c1ncn2CCC(=O)O (centres undefined) ?
Response line: > 100 µM (inactive)

Prompt line: Which GI50 is reported with RXF 393 for this entry: COC(=O)[C@]1(C)CCCC2(C)C1CC[C@H]1C=C(C)[C@H]3CCC12C3 (some centres undefined) ?
Response line: 55.3 µM (inactive)

Prompt line: Which GI50 is reported with RXF 393 for this entry: O=C(O)CN(CC(=O)O)Cc1ccn(-c2cccc(-n3ccc(CN(CC(=O)O)CC(=O)O)n3)n2)n1 ?
Response line: > 100 µM (inactive)

Prompt line: Which GI50 is reported with RXF 393 for this entry: O=Cc1c2ccccc2n2ccc3c4ccccc4[nH]c3c12 ?
Response line: > 10 µM (inactive)

Prompt line: Which GI50 is reported with RXF 393 for this entry: C/C=C1/C(=Cc2[nH]c(C=c3[nH]/c(=C/C4=NC(=O)C(CC)=C4C)c(C)c3CCC(=O)O)c(CCC(=O)O)c2C)NC(=O)C1C (centres undefined) ?
Response line: > 50 µM (inactive)

Prompt line: Which GI50 is reported with RXF 393 for this entry: CC(=O)CCC1(C(=O)OCC(C)C)CCCC1=O (centres undefined) ?
Response line: > 100 µM (inactive)
